Data provenance is ChEMBL document CHEMBL4732145.

Tested on: A549
Experiment: Antiproliferative activity against human A549 cells assessed as reduction in cell viability measured after 72 hrs by MTT assay
Conditions: A549, 72 h
Would you kindly list pIC50 for each of these molecules?
Answers are plain numbers, as −log10 of the molar value.

INSERT INTO results (molecule, target, measured) VALUES
  ('Cc1cc(Nc2ncc(Cl)c(Nc3ccccc3S(=O)(=O)C(C)C)n2)c(OC(C)C)cc1C1CCNCC1', 'A549', 5.88);

Pending molecule:
// sample Cc1cc(Nc2ncc(Cl)c(Nc3ccccc3S(=O)(=O)C(C)C)n2)c(OC(C)C)cc1C1CCN(CCC(=O)NCCOCCNCC(=O)Nc2cccc3c2C(=O)N(C2CCC(=O)NC2=O)C3=O)CC1 (centres undefined) , its pIC50 was 5.17
